- Test system: Canis familiaris
- EXPERIMENT_SUMMARY: Oral bioavailability in fasted Beagle dog assessed as ertapenem level at 10 mg/kg dosed through intraduodenal route by LC-MS/MS method
- Type: ADME, organism-based, Canis lupus familiaris
- CONDITIONS: in vivo
MEASURED_ATTRIBUTE: F (%)

INSERT INTO measurements (smiles_repr, measurement_units, endpoint_result) VALUES
  ('CC(C)C(=O)OCOC(=O)C1=C(S[C@@H]2CN[C@H](C(=O)Nc3cccc(C(=O)OCOC(=O)C(C)C)c3)C2)[C@H](C)[C@@H]2[C@@H]([C@@H](C)O)C(=O)N12', '%', 3.6),
  ('CCC(=O)OCOC(=O)C1=C(S[C@@H]2CN[C@H](C(=O)Nc3cccc(C(=O)OCOC(=O)CC)c3)C2)[C@H](C)[C@@H]2[C@@H]([C@@H](C)O)C(=O)N12', '%', 2.9),
  ('C[C@@H](O)[C@H]1C(=O)N2C3=C(S[C@@H]4CN[C@@H](C4)C(=O)Nc4cccc(c4)C(=O)OCCCOC3=O)[C@H](C)[C@H]12', '%', 0.5);

---

- Test system: Canis familiaris
- EXPERIMENT_SUMMARY: Oral bioavailability in fasted Beagle dog assessed as assessed as ertapenem and monoetser metabolites level at 10 mg/kg dosed through intraduodenal route by LC-MS/MS method
- Format: ADME, organism-based, Canis lupus familiaris
- CONDITIONS: in vivo
MEASURED_ATTRIBUTE: F (%)

INSERT INTO assay_data (smiles_repr, measurement_units, endpoint_result) VALUES
  ('CCC(=O)OCOC(=O)C1=C(S[C@@H]2CN[C@H](C(=O)Nc3cccc(C(=O)OCOC(=O)CC)c3)C2)[C@H](C)[C@@H]2[C@@H]([C@@H](C)O)C(=O)N12', '%', 2.9),
  ('CC(C)C(=O)OCOC(=O)C1=C(S[C@@H]2CN[C@H](C(=O)Nc3cccc(C(=O)OCOC(=O)C(C)C)c3)C2)[C@H](C)[C@@H]2[C@@H]([C@@H](C)O)C(=O)N12', '%', 3.6),
  ('C[C@@H](O)[C@H]1C(=O)N2C3=C(S[C@@H]4CN[C@@H](C4)C(=O)Nc4cccc(c4)C(=O)OCCCOC3=O)[C@H](C)[C@H]12', '%', 0.7);

---

- EXPERIMENT_SUMMARY: Stability in human plasma assessed as compound remaining at 50 uM at 37 degC after 60 mins by LC-MS/MS method
- Type: ADME, cell-free
- CONDITIONS: read-out: Stability
MEASURED_ATTRIBUTE: remaining at 1 h, 50 µM (%)

INSERT INTO measurements (smiles_repr, measured_attribute, measurement_units, endpoint_result) VALUES
  ('COC(=O)OCOC(=O)C1=C(S[C@@H]2CN[C@H](C(=O)Nc3cccc(C(=O)O)c3)C2)[C@H](C)[C@@H]2[C@@H]([C@@H](C)O)C(=O)N12', 'remaining at 1 h, 50 µM', '%', 33),
  ('Cc1oc(=O)oc1COC(=O)N1C[C@@H]2C[C@H]1C(=O)Nc1cccc(c1)C(=O)OCc1oc(=O)oc1COC(=O)C1=C(S2)[C@H](C)[C@@H]2[C@@H]([C@@H](C)O)C(=O)N12', 'remaining at 1 h, 50 µM', '%', 0),
  ('CCC(=O)OCOC(=O)C1=C(S[C@@H]2CN[C@H](C(=O)Nc3cccc(C(=O)OCOC(=O)CC)c3)C2)[C@H](C)[C@@H]2[C@@H]([C@@H](C)O)C(=O)N12', 'remaining at 1 h, 50 µM', '%', 0),
  ('C[C@@H](O)[C@H]1C(=O)N2C(C(=O)OCOC(=O)OC3CCCCC3)=C(S[C@@H]3CN[C@H](C(=O)Nc4cccc(C(=O)O)c4)C3)[C@H](C)[C@H]12', 'remaining at 1 h, 50 µM', '%', 46),
  ('C[C@@H](O)[C@H]1C(=O)N2C(C(=O)OCOC(=O)OC(C)(C)C)=C(S[C@@H]3CN[C@H](C(=O)Nc4cccc(C(=O)OCOC(=O)OC(C)(C)C)c4)C3)[C@H](C)[C@H]12', 'remaining at 1 h, 50 µM', '%', 67);

---

- System: Canis familiaris
- EXPERIMENT_SUMMARY: Oral bioavailability in fasted Beagle dog assessed as ertapenem level at 10 mg/kg dosed through intraduodenal route by LC-MS/MS method
- Format: ADME, organism-based, Canis lupus familiaris
- CONDITIONS: in vivo
This listing pairs compounds with measured F.
MEASURED_ATTRIBUTE: F

INSERT INTO assay_data (smiles_repr, measured_attribute, endpoint_result) VALUES
  ('C[C@@H](O)[C@H]1C(=O)N2C3=C(S[C@@H]4CN[C@@H](C4)C(=O)Nc4cccc(c4)C(=O)OCc4oc(=O)oc4COC3=O)[C@H](C)[C@H]12', 'F', '1%'),
  ('CCOC(=O)C1=C(S[C@@H]2CN[C@H](C(=O)Nc3cccc(C(=O)OCC)c3)C2)[C@H](C)[C@@H]2[C@@H]([C@@H](C)OC(=O)[C@@H](N)C(C)C)C(=O)N12', 'F', '9.7%'),
  ('C[C@@H](O)[C@H]1C(=O)N2C(C(=O)OCOC(=O)C(C)(C)C)=C(S[C@@H]3CN[C@H](C(=O)Nc4cccc(C(=O)OCOC(=O)C(C)(C)C)c4)C3)[C@H](C)[C@H]12', 'F', '3%'),
  ('CCCCOC(=O)C1=C(S[C@@H]2CN[C@H](C(=O)Nc3cccc(C(=O)OCCCC)c3)C2)[C@H](C)[C@@H]2[C@@H]([C@@H](C)O)C(=O)N12', 'F', '13.1%'),
  ('COC(=O)C1=C(S[C@@H]2CN[C@H](C(=O)Nc3cccc(C(=O)OC)c3)C2)[C@H](C)[C@@H]2[C@@H]([C@@H](C)O)C(=O)N12', 'F', '14.3%');

---

Parameter AUC: see the listing below.
- Test system: Canis familiaris
- EXPERIMENT_SUMMARY: AUC (0 to 8 hrs) in fasted Beagle dog assessed as 8-OH, C-3 ester level at 10 mg/kg dosed through intraduodenal route by LC-MS/MS method
- Type: ADME, organism-based, Canis lupus familiaris, Plasma
- Set-up: time < 8 hr, dose 10 mg/kg, route intraduodenal
- CONDITIONS: in vivo, other
MEASURED_ATTRIBUTE: AUC (µM·h)

INSERT INTO measurements (smiles_repr, limit_operator, endpoint_result) VALUES
  ('C[C@@H](O)[C@H]1C(=O)N2C(C(=O)OCOC(=O)C(C)(C)C)=C(S[C@@H]3CN[C@H](C(=O)Nc4cccc(C(=O)OCOC(=O)C(C)(C)C)c4)C3)[C@H](C)[C@H]12', '<', 0.1),
  ('CCOC(=O)C1=C(S[C@@H]2CN[C@H](C(=O)Nc3cccc(C(=O)OCC)c3)C2)[C@H](C)[C@@H]2[C@@H]([C@@H](C)O)C(=O)N12', '=', 2.2),
  ('CCOC(=O)C1=C(S[C@H]2C[C@@H](C(=O)Nc3cccc(C(=O)OCC)c3)N(C(=O)OCc3oc(=O)oc3C)C2)[C@H](C)[C@@H]2[C@@H]([C@@H](C)O)C(=O)N12', '=', 0.7),
  ('CCOC(=O)C1=C(S[C@@H]2CN[C@H](C(=O)Nc3cccc(C(=O)OCC)c3)C2)[C@H](C)[C@@H]2[C@@H]([C@@H](C)OC(=O)[C@@H](N)C(C)C)C(=O)N12', '=', 0.9),
  ('CCOC(=O)C1=C(S[C@@H]2CN[C@H](C(=O)Nc3cccc(C(=O)OCC)c3)C2)[C@H](C)[C@@H]2[C@@H]([C@@H](C)OC(=O)CC)C(=O)N12', '=', 1.3),
  ('CCOC(=O)C1=C(S[C@@H]2CN[C@H](C(=O)Nc3cccc(C(=O)OCC)c3)C2)[C@H](C)[C@@H]2[C@@H]([C@@H](C)OC(C)=O)C(=O)N12', '=', 1.8),
  ('C[C@@H](O)[C@H]1C(=O)N2C(C(=O)OCC(F)(F)F)=C(S[C@@H]3CN[C@H](C(=O)Nc4cccc(C(=O)OCC(F)(F)F)c4)C3)[C@H](C)[C@H]12', '=', 0.8),
  ('COC(=O)C1=C(S[C@@H]2CN[C@H](C(=O)Nc3cccc(C(=O)OC)c3)C2)[C@H](C)[C@@H]2[C@@H]([C@@H](C)O)C(=O)N12', '=', 3.9);

---

Quick list: AUC per entry.
- System: Canis familiaris
- EXPERIMENT_SUMMARY: AUC (0 to 8 hrs) in fasted Beagle dog assessed as ertapenem level at 10 mg/kg dosed through intraduodenal route by LC-MS/MS method
- Assay type: ADME, organism-based, Canis lupus familiaris, Plasma
- Set-up: time < 8 hr, dose 10 mg/kg, route intraduodenal
- CONDITIONS: in vivo, other
MEASURED_ATTRIBUTE: AUC (µM·h)

INSERT INTO results (smiles_repr, assayed_system, endpoint_result) VALUES
  ('C[C@@H](O)[C@H]1C(=O)N2C(C(=O)[O-])=C(S[C@@H]3CN[C@H](C(=O)Nc4cccc(C(=O)O)c4)C3)[C@H](C)[C@H]12.O.[Na+]', 'Canis familiaris', 1.4),
  ('CCC(=O)OCOC(=O)C1=C(S[C@@H]2CN[C@H](C(=O)Nc3cccc(C(=O)OCOC(=O)CC)c3)C2)[C@H](C)[C@@H]2[C@@H]([C@@H](C)O)C(=O)N12', 'Canis familiaris', 1.6),
  ('CCCCOC(=O)C1=C(S[C@@H]2CN[C@H](C(=O)Nc3cccc(C(=O)OCCCC)c3)C2)[C@H](C)[C@@H]2[C@@H]([C@@H](C)O)C(=O)N12', 'Canis familiaris', 9.4),
  ('CCOC(=O)C1=C(S[C@H]2C[C@@H](C(=O)Nc3cccc(C(=O)OCC)c3)N(C(=O)OCc3oc(=O)oc3C)C2)[C@H](C)[C@@H]2[C@@H]([C@@H](C)O)C(=O)N12', 'Canis familiaris', 3.4),
  ('C[C@@H](O)[C@H]1C(=O)N2C3=C(S[C@@H]4CN[C@@H](C4)C(=O)Nc4cccc(c4)C(=O)OCCCOC3=O)[C@H](C)[C@H]12', 'Canis familiaris', 0.4),
  ('CCOC(=O)C1=C(S[C@@H]2CN[C@H](C(=O)Nc3cccc(C(=O)OCC)c3)C2)[C@H](C)[C@@H]2[C@@H]([C@@H](C)OC(C)=O)C(=O)N12', 'Canis familiaris', 11.3);
